Molecular target: human TRESK (hTRESK) (Homo sapiens)
Sequence (Q7Z418 1-384): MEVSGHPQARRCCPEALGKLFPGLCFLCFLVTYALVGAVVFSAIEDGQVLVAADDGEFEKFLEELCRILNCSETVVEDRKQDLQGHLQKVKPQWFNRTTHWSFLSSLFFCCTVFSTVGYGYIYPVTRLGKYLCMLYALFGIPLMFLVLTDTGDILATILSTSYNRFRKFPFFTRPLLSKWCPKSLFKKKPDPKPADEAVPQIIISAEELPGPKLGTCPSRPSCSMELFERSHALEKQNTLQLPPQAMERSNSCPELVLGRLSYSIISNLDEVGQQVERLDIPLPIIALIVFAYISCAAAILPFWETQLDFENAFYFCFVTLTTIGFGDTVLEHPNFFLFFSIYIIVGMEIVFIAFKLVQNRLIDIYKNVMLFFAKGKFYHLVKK
Assay: whole-cell patch clamp in transfected HEK293 cells, dose-response
Measured quantity: pIC50
Answers are plain numbers, as −log10 of the molar value.

Any idea what its pIC50 is? The compound is CC(C)=CC1C(C(=O)OCN2C(=O)C3=C(CCCC3)C2=O)C1(C)C (stereo not shown) 4.97

====

biological target: mouse TRAAK (mTRAAK) (Mus musculus); assay: whole-cell patch clamp in transfected HEK293 cells, dose-response
Sequence (O88454 whole entry): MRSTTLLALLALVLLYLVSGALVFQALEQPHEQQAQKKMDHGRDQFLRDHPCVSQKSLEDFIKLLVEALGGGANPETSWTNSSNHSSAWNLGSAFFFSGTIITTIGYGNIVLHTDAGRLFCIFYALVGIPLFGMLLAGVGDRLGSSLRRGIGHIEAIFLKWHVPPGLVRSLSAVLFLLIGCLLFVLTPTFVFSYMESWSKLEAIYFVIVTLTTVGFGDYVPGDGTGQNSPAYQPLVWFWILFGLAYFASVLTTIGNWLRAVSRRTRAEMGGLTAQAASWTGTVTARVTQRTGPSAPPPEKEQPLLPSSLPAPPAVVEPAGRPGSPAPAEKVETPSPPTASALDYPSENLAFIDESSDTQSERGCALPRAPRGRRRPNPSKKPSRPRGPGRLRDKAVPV
Measured quantity: IC50 (µM)
Answers are plain numbers, in µM.

What value of IC50 has been recorded for this entry: CC(C)=CC1C(C(=O)OCN2C(=O)C3=C(CCCC3)C2=O)C1(C)C (stereo not shown) [TM, Tetramethrin] 12.6
